# Test system: MPNST complex spheroid with HUVEC/MSC, growth, % test/control
# Experiment: Anticancer human tumor MPNST cell line growth inhibition [Asc];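 also: compounds left on spheroids for seven days before reading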
# Applied Conditions: second compound 0.3 µM; first compound 1 µM; active compounds read low
// reported viability, T/C for each item listed
Measured Endpoint: viability, T/C (%)

• C#Cc1c(F)ccc2cc(O)cc(-c3ncc4c(N5CC6CCC(C5)N6)nc(OCC56CCCN5CC(F)C6)nc4c3F)c12 (configuration not stated) + CCN1C(C(=O)NC23CCC(C(=O)O)(CC2)CC3)C(c2cccc(Cl)c2F)C2(C(=O)Nc3cc(Cl)ccc32)C12CCCCC2 = 72.6
• O=C(c1ccc(F)c(F)c1Nc1ccc(I)cc1F)N1CC(O)([C@@H]2CCCCN2)C1 + CCN1C(C(=O)NC23CCC(C(=O)O)(CC2)CC3)C(c2cccc(Cl)c2F)C2(C(=O)Nc3cc(Cl)ccc32)C12CCCCC2 = 17.7
